- systemUnderTest: T1, recombinant human twin strep-tagged ROR2 extracellular domain (human, UniProt Q01974 34-403)
- T1 construct: extracellular domain; Made in HEK293T, Streptactin purified; also called Human ROR2-TwinStrep; human ROR2
- assayOverview: ELISA, IgG titrated on coated twin-strep human ROR2 ECD; fit printed as IC50

binder	IC50 (µg/mL)
ERR2-317 (mAb006) (antibody, human IgG1, V domains shown, Full-length chimeric rabbit/human IgG1, human IgH-gamma1 and IgL-kappa constant regions; C-terminal tags HC: LPETG-Strep, LC: G5SLPETG-Strep) VH: QSLEESGGRLVTPGTPLTLTCTASGFSLSSYDMIWVRQAPGKGLEYIGIINAGGNTYYASWAKGRFTISRTSTTVDLKMTSPTTEDTATYFCARGSSWTGDIWGPGTLVTVSS VL: DPVLTQTPSSTSAAVGGTVTIKCQASQSISSYLSWYQQKPGQPPKQLIYAASTLASGVPSRFKGSGSGTEYTLTISGVQREDAATYYCLGGYASASYQTAFGGGTKVEIK	0.0168
ERR2-316 (mAb005) (antibody, human IgG1, V domains shown, Full-length chimeric rabbit/human IgG1, human IgH-gamma1 and IgL-kappa constant regions; C-terminal tags HC: LPETG-Strep, LC: G5SLPETG-Strep; also called mAb0005) VH: QKQLVESGGRLVTPGGSLTLTCTVSGFSLSKYGVSWVRQAPGSGLEYIGTIGGSGTSYYASWAKSRSTITRNTNLNTVTLKMTSLTAADTATYFCARYFGWNTGFDIWGPGTLVTISS VL: DPVMTQTPSSVSEPVGGTVTIKCQASQSISNALAWYQQKPGQPPKRLIYKASTPASGVPSRFKGSRSGTEYTLTISGVQREDAATYYCLGFSVVSNDGWAFGAGTNVEIK	0.0407
